For each of the molecules below, state its pIC50.
- Tested on: RSV B Washington strain
- protocol details: RSV B induced CPE in HEp2 cells
- Assay type: cell-based
- conditions used: human respiratory syncytial virus, HEp-2, 144 h, 6 days
One number for each entry, as −log10 of the molar value.

Cc1ccc(C(=O)Nc2ccc(C(=O)N3CCc4cc(C(=O)Nc5c(F)cccc5F)sc4-c4sccc43)cc2)c(N2CC3(CCOCC3)C2)n1 ... 7.77
O=C(Nc1c(F)cccc1F)c1cc2c(s1)-c1sccc1N(C(=O)c1ccc(NC(=O)c3cc4c(nc3N3CC5(CCOCC5)C3)CCOC4)cc1)CC2 ... 8.00
Cc1cnc(N2CC3(CCOCC3)C2)c(C(=O)Nc2ccc(C(=O)N3CCc4cc(C(=O)Nc5c(F)cc(F)cc5F)sc4-c4sccc43)cc2)c1 ... 7.72

Hi! Can you tell me pIC50 for each of these molecules?
1. O=C(Nc1c(F)cccc1F)c1cc2c(s1)-c1sccc1N(C(=O)c1ccc(NC(=O)c3cc4ccccc4nc3N3CC4(CCOCC4)C3)cc1)CC2
2. Cc1cnc(N2CC3(CCOCC3)C2)c(C(=O)Nc2ccc(C(=O)N3CCc4cc(C(=O)Nc5c(F)cccc5F)sc4-c4sccc43)c(F)c2)c1

[A]
1: 7.49; 2: 7.85
